Recorded values, source patent US20230357447A1.

Listing of recorded Phage binding ELISA Backgroud signal by entry.
- Test system: anti-CD28 scFv
- PROTOCOL TEXT: Phage binding ELISA (panning) of clonal phage on anti-CD28 scFv, with or without CD28 soluble protein
- CONDITION DETAILS: clonal phage supernatant; background signal

# annotated cases, reported Phage binding ELISA Backgroud signal shown
Phage-277 (MDWCPRSHWSECFS): 0.080
Phage-242 (MDWCPKHLWTECFA): 0.098

Quick one: Phage binding ELISA Backgroud signal of Phage-363 (MNWCPMHLWAECFN) ?
0.087

Quick one: Phage binding ELISA Backgroud signal of Phage-191 (MDWCPRDMWYECFN) ?
0.099

Quick one: Phage binding ELISA Backgroud signal of Phage-275 (MDWCPRDHWVDCYS) ?
0.172

Quick one: Phage binding ELISA Backgroud signal of Phage-333 (MDWCPTDLWHECFA) ?
0.078

Quick one: Phage binding ELISA Backgroud signal of Phage-238 (MDWCPPYLWSECFA) ?
0.539

Quick one: Phage binding ELISA Backgroud signal of Phage-354 (MDWCPRYLWLECFN) ?
0.083

Quick one: Phage binding ELISA Backgroud signal of Phage-172 (MDWCPPYLWYECFA) ?
0.068

---

- Test system: anti-CD28 scFv (SEQ ID NO: 9)
- PROTOCOL TEXT: Octet bio-layer interferometry kinetic binding of anti-CD28 scFv to peptides
- Set-up: species or system human
- CONDITION DETAILS: Octet RED96; biotinylated peptide loaded on streptavidin biosensor; anti-CD28 scFv in solution; 1:1 binding model
Listing of recorded kdis by entry.
Express the result in s⁻¹ but write the number alone.

# annotated cases, reported kdis shown
CSCC[C@H](N)C(=O)N[C@@H](CC(=O)O)C(=O)N[C@@H](Cc1c[nH]c2ccccc12)C(=O)N[C@H]1CSSC[C@@H](C(=O)N[C@@H](Cc2ccccc2)C(=O)N[C@@H](C)C(=O)O)NC(=O)[C@H](Cc2c[nH]cn2)NC(=O)[C@H](C(C)C)NC(=O)[C@H](Cc2c[nH]c3ccccc23)NC(=O)[C@H](CC(C)C)NC(=O)[C@H](CC(=O)O)NC(=O)[C@H](CCCNC(=N)N)NC(=O)[C@@H]2CCCN2C1=O [Peptide-41]: 0.00154
CSCC[C@@H]1NC(=O)[C@H](CC(=O)O)NC(=O)[C@H](CCCNC(=N)N)NC(=O)[C@@H]2CCCN2C(=O)[C@@H](NC(=O)[C@H](Cc2c[nH]c3ccccc23)NC(=O)[C@H](CC(=O)O)NC(=O)[C@@H](N)CCSC)CSSC[C@@H](C(=O)N[C@@H](Cc2ccccc2)C(=O)N[C@@H](C)C(=O)O)NC(=O)[C@H](CCC(=O)O)NC(=O)[C@H](CC(=O)O)NC(=O)[C@H](Cc2c[nH]c3ccccc23)NC1=O [Peptide-42]: 0.00433
CSCC[C@@H]1NC(=O)[C@H](CC(=O)O)NC(=O)[C@H](CCCNC(=N)N)NC(=O)[C@@H]2CCCN2C(=O)[C@@H](NC(=O)[C@H](Cc2c[nH]c3ccccc23)NC(=O)[C@H](CC(=O)O)NC(=O)[C@@H](N)CCSC)CSSC[C@@H](C(=O)N[C@@H](Cc2ccccc2)C(=O)N[C@@H](C)C(=O)O)NC(=O)[C@H](CCC(=O)O)NC(=O)[C@H](CO)NC(=O)[C@H](Cc2c[nH]c3ccccc23)NC1=O [Peptide-43]: 0.0032
CSCC[C@H](N)C(=O)N[C@@H](CC(=O)O)C(=O)N[C@@H](Cc1c[nH]c2ccccc12)C(=O)N[C@H]1CSSC[C@@H](C(=O)N[C@@H](Cc2ccccc2)C(=O)N[C@@H](C)C(=O)O)NC(=O)[C@H](CC(C)C)NC(=O)[C@H](CC(=O)O)NC(=O)[C@H](Cc2c[nH]c3ccccc23)NC(=O)[C@H](CC(C)C)NC(=O)[C@H](CC(=O)O)NC(=O)[C@H](CCCNC(=N)N)NC(=O)[C@@H]2CCCN2C1=O [Peptide-37]: 0.00351

Moving on to another molecule below.
Quick one: kdis of CSCC[C@@H]1NC(=O)[C@H](CC(=O)O)NC(=O)[C@H](CCCNC(=N)N)NC(=O)[C@@H]2CCCN2C(=O)[C@@H](NC(=O)[C@H](Cc2c[nH]c3ccccc23)NC(=O)[C@H](CC(=O)O)NC(=O)[C@@H](N)CCSC)CSSC[C@@H](C(=O)N[C@@H](Cc2ccccc2)C(=O)N[C@@H](CO)C(=O)O)NC(=O)[C@H](C(C)C)NC(=O)[C@H](CO)NC(=O)[C@H](Cc2c[nH]c3ccccc23)NC1=O [Peptide-44] ?
0.00812
